- System: Escherichia coli
- protocol_notes: Synergistic antibacterial activity against Escherichia coli TG-1 transfected with Klebsiella pneumoniae full-length NDM-1 beta lactamase gene assessed as fractional inhibitory concentration index in presence of meropenem
- Assay type: functional
measure_name: fractional inhibitory concentration index (FICI)
Answer field: number only, no words.

Ask | Request - read-out fractional inhibitory concentration index (FICI) | tested on Escherichia coli | molecule `O=c1c2ccccc2[se]n1CCNS(=O)(=O)c1ccc(F)cc1`
Reply | 0.25

Ask | Note, next up: `COC(=O)c1cccc(-n2[se]c3ccccc3c2=O)c1`
Reply | 0.25

Ask | Note, next up: `CS(=O)(=O)c1ccc(-n2[se]c3ccccc3c2=O)cc1`
Reply | 0.25

Ask | Note, next up: `COC(=O)c1ccc(-n2[se]c3ccccc3c2=O)cc1OC`
Reply | 0.25

Ask | Note, next up: `CCS(=O)(=O)NCCn1[se]c2ccccc2c1=O`
Reply | 0.5

Ask | Note, next up: `CC(C)(C)OC(=O)NCCCCCCn1[se]c2ccccc2c1=O`
Reply | 0.125

Ask | Note, next up: `O=c1c2ccccc2[se]n1-c1ccc(-c2ccccc2)cc1`
Reply | 2

Ask | Note, next up: `CC(C)(C)c1ccc(S(=O)(=O)NCCn2[se]c3ccccc3c2=O)cc1`
Reply | 0.25

Ask | Note, next up: `CC(C)(C)OC(=O)N1CC[C@@H](n2[se]c3ccccc3c2=O)C1`
Reply | 0.25

Ask | Note, next up: `Cc1ccc(S(=O)(=O)NCCn2[se]c3ccccc3c2=O)cc1`
Reply | 0.25

Ask | Note, next up: `CC(C)(C)C(=O)NCCCn1[se]c2ccccc2c1=O`
Reply | 0.5
